// CC50 at 48 h lookup, one value per entry
experiment: Cytotoxicity against human HepG2 cells assessed as reduction in cell viability measured after 48 hrs by CellTiter-Glo assay; format: cell-based

>  <smiles repr>
CCCn1c(NC(=O)Nc2ccc(Cl)cc2)nc2ccccc21

>  <CC50 at 48 h>
40 µM

$$$$
>  <smiles repr>
Cn1c(NC(=O)Cc2ccc(Cl)cc2)nc2ccccc21

>  <CC50 at 48 h>
> 50 µM

$$$$
>  <smiles repr>
CCCn1c(NC(=O)Cc2ccc(OC(C)=O)cc2)nc2ccccc21

>  <CC50 at 48 h>
> 50 µM

$$$$
>  <smiles repr>
CCCc1c(NC(=O)Cc2ccc(Cl)cc2)ncc2ccccc12

>  <CC50 at 48 h>
7.94 µM

$$$$
>  <smiles repr>
CCCn1c(NC(=O)c2ccccc2)nc2ccccc21

>  <CC50 at 48 h>
25 µM

$$$$
>  <smiles repr>
CCCn1c(NC(=O)Cc2cccc(C)c2)nc2ccccc21

>  <CC50 at 48 h>
> 50 µM

$$$$
>  <smiles repr>
CCCn1c(NC(=O)CCCc2ccccc2)nc2ccccc21

>  <CC50 at 48 h>
> 50 µM

$$$$
>  <smiles repr>
CCCn1c(NC(=O)CCc2ccccc2)nc2ccccc21

>  <CC50 at 48 h>
> 50 µM

$$$$
